Taken from patent US20080233221A1.

# Experimental Protocol: Cell viability by MTT assay in PC-3 cells
# Assay type: cell-based, human
# Assay Conditions: human
# Protocol: Human benign prostate hyperplasia epithelial cells (BPH-1) were obtained from Dr. Simon W. Hayward (Vanderbilt University, Nashville, Tenn.) and malignant androgen-independent prostate cancer epithelial cells (PC-3) were obtained from American Type Tissue Collection (Manassas, Va.). […] XN was isolated from hop cones as described previously (Stevens et al., J. Chromatogr. A 832 (1999) 97-107). […] The structure of XAL was determined by mass spectrometry, NMR spectroscopy and X-ray diffraction analysis. […]
Quantity Name: cytotoxicity at 48 h, 20 μM (%)
Report the figure in % without appending any unit label.

So what's the measured cytotoxicity at 48 h, 20 μM for this one? COc1cc(O)c(CC=C(C)C)c(O)c1C(=O)/C=C/c1ccc(O)cc1
43
